For each entry below, report its TGI value.
# Tested on: M14 melanoma
# protocol: NCI tumour cell line growth inhibition, 48 h

Each molecule below has a recorded value; state its TGI.
1. O=C(N=Nc1c(O)[nH]c2ccccc12)C(O)(c1ccccc1)c1ccccc1
2. COc1ccc(C(CC(C)=O)c2c(O)c3ccccc3oc2=O)cc1OC (stereo not drawn)
3. COc1ccc(-c2c(C#N)c(=O)nc(SC)n2C2OCC(OC(C)=O)C(OC(C)=O)C2OC(C)=O)cc1 (stereo not drawn)

Marked response:
["30.4 µM", "> 100 µM", "> 100 µM"]

* * *

# Tested on: HOP-92 NSCLC
# protocol: NCI tumour cell line growth inhibition, 48 h
Tick true (1) if TGI is 30 µM or greater. Tick false (0) if TGI is less than 30 µM.

Observe how each entry below is paired with its result.
INSERT INTO results (compound, group_label) VALUES
  ('Cc1n[nH]c(=O)n1/N=C/c1ccc([N+](=O)[O-])cc1', 'true (1)'),
  ('COc1cccc2c(=O)c3c(n(C)c12)OC(C(C)C)C3 (stereo not given)', 'true (1)'),
  ('NC(Cc1ccc(O)c(O)c1)P(=O)(O)O (stereo not given)', 'true (1)'),
  ('COc1ccc(C2SCc3nc4ccccc4n32)cc1 (stereo not given)', 'false (0)'),
  ('N=C1N(/N=C/c2ccccn2)C(=Nc2ccccc2)C(=S)N1c1ccccc1', 'false (0)'),
  ('Clc1ccc(Nc2nnc(CNc3ccccc3)c3ccccc23)cc1', 'false (0)');

Exam item: Decide: is the reported value of TGI for NC(N)=N/N=C\c1ccc(C2CCNCC2)cc1 equal to or greater than 30 µM?
Marked response: true (1)

Exam item: Decide: is the reported value of TGI for O=C(NCc1ccccc1)c1cc2ccc(O)c(O)c2cn1 equal to or greater than 30 µM?
Marked response: true (1)

Exam item: Decide: is the reported value of TGI for Cc1cc(C)c2c(c1)CC1(Cc3c(ccc(C)c3C)C1=O)C2=O (stereo not given) equal to or greater than 30 µM?
Marked response: true (1)

Exam item: Decide: is the reported value of TGI for O=C(OCc1nc2nc(Cl)nc(N3CCOCC3)c2[nH]1)n1ccnc1 equal to or greater than 30 µM?
Marked response: false (0)

Exam item: Decide: is the reported value of TGI for COc1ccc2c(C)cc(C)nc2n1 equal to or greater than 30 µM?
Marked response: true (1)

Exam item: Decide: is the reported value of TGI for COc1cc2c3c(c1O)-c1c(ccc(OC)c1OC)CC3N(C)CC2 (stereo not given) equal to or greater than 30 µM?
Marked response: true (1)
